- target-under-test: human CCR8 (human, UniProt P51685 1-355)
- protocol-details: cell-based or functional assay
# if value of hCCL1 (100 nM) residual response, Protocol #2, mAb 0.08 µg/mL reaches 90%, tag YES; if it stays below, tag NO

{"binder": "3-80 (antibody, human IgG1, kappa, V domains shown, humanized, human IgG1 kappa) VH: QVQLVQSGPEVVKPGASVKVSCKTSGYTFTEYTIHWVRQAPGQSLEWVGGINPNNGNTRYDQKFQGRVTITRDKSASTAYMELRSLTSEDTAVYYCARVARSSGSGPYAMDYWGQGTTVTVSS VL: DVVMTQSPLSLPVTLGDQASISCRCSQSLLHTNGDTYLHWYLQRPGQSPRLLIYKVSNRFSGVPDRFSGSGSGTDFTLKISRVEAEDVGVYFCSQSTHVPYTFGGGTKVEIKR", "class-name": "NO"}
{"binder": "3-11 (antibody, V domains shown) VH: EVQLVESGGGLVQPKGSLKLSCAASGFTFNTYAMNWVRQAPGKGLEWVARIRSKSNNYATYYADSVKDRFTISRDDSQSMLYLQMNNLKTEDTAMYYCVRGREAYYRYDGGYYAMDYWGQGTSVTVSS VL: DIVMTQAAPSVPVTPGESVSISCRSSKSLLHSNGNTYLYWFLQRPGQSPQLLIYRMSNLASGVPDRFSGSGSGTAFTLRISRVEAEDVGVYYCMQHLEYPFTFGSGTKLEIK", "class-name": "NO"}
{"binder": "3-79 (antibody, human IgG1, kappa, V domains shown, humanized, human IgG1 kappa) VH: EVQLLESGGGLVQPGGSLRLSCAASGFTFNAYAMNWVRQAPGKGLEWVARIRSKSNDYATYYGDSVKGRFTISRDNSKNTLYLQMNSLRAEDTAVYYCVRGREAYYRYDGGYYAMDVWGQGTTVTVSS VL: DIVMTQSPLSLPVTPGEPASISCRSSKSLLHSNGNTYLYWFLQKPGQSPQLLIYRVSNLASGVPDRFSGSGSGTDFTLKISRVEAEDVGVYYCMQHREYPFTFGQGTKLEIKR", "class-name": "YES"}
{"binder": "3-52 (antibody, V domains shown) VH: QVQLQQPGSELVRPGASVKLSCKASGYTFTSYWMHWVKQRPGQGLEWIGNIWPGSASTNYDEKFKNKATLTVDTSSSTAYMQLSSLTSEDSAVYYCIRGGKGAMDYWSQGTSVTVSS VL: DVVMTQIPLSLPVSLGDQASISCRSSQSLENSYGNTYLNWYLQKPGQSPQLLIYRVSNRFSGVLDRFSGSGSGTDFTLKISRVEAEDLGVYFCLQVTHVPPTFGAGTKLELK", "class-name": "YES"}
{"binder": "3-50 (antibody, V domains shown) VH: EVQLQQSGPELVKPGASVKISCKASVYSFTGSYMHWVKQSHVKSLEWIGRINPYNGATSYNQNFKDKASLTVDKSSSTAYMELHSLTSEDSAVYYCATTLLRLLDYWGQGTTLTVSS VL: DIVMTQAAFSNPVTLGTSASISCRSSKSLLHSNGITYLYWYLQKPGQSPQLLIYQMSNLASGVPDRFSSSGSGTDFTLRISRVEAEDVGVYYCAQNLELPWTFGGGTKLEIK", "class-name": "YES"}
{"binder": "3-81 (antibody, human IgG1, kappa, V domains shown, humanized, human IgG1 kappa) VH: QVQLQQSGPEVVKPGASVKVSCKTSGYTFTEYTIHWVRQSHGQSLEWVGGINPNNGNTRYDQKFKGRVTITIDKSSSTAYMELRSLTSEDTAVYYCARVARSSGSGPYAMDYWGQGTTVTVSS VL: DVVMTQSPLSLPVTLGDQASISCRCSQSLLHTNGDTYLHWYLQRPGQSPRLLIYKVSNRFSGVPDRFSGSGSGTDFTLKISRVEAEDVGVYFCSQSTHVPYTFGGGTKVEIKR", "class-name": "NO"}

// data source = patent US20260234276A1
